# protocol-text: Pharmacokinetic study, plasma and brain PK parameters after I.P. dosing
# Format: in vivo, mouse
# condition: mouse, brain/plasma, ip, 25 mg/kg, 25 mg/Kg I.P.; read-out: AUClast Ratio (brain/plasma)
observation-type: Kp
Would you mind answering with just the numeric figure?

Need Kp, item Cn1cc(-c2cc(Cl)c(Cl)c3sc4c(c23)CN(C(=O)CO)CC4)cn1 [Compound 48]
3.79

Need Kp, item O=C(CO)N1CCc2c(sc3c(Cl)c(Cl)cc(-c4cn[nH]c4)c23)C1 [Compound 63]
0.989

* * *

# protocol-text: Protein binding in mouse brain homogenates
# Type: in vitro ADME
# condition: brain homogenate
observation-type: recovery at 6 h

Need recovery at 6 h, item CCCc1nc2c(C)cc(-c3nc4ccccc4n3C)cc2n1Cc1ccc(-c2ccccc2C(=O)O)cc1 [Telmisartan, reference compound]
99.3%

Need recovery at 6 h, item Cn1cc(-c2cc(Cl)c(Cl)c3nc4c(n23)CN(C(=O)CO)CC4)cn1
90.1%

Need recovery at 6 h, item Cn1cc(-c2cc(Cl)c(Cl)c3sc4c(c23)CN(C(=O)CO)CC4)cn1
< 91.1%

Need recovery at 6 h, item O=C(CO)N1CCc2c(sc3c(Cl)c(Cl)cc(-c4cn[nH]c4)c23)C1
< 88.4%

Need recovery at 6 h, item Cn1cc(-c2cc(Cl)c(Cl)c3sc4c(c23)CCN(C(=O)CN)C4)cn1
92.8%

Need recovery at 6 h, item Cn1cc(-c2cc(Cl)c(Cl)c3oc4c(c23)CN(C(=O)CN)CC4)cn1
< 82.4%

* * *

# protocol-text: Metabolic stability in mouse liver microsomes
# condition: mouse, liver microsomes
observation-type: half-life

Need half-life, item Cn1ccc(-c2cc(Cl)c(Cl)c3oc4c(c23)CN(C(=O)CO)CC4)n1 [Compound 24]
> 3.08 h

Need half-life, item Cn1cc(-c2cc(Cl)c(Cl)c3c2c2c(n3C)CCN(C(=O)CN)C2)cn1 [Compound 11]
> 2.42 h

Need half-life, item Cn1cc(-c2cc(Cl)c(Cl)c3sc4c(c23)CCN(C(=O)CN)C4)cn1 [Compound 74]
> 2.42 h

Need half-life, item Cn1cc(-c2cc(Cl)c(Cl)c3sc4c(c23)CN(C(=O)CN)CC4)cn1 [Compound 54]
> 2.42 h

* * *

# assay-target: h-cGAS (Homo sapiens)
# protocol-text: Cell-free human cGAS enzyme inhibition assay (ATP depletion, Kinase-Glo Max)
# Assay type: biochemical
# condition: 3 h; read-out: h-cGAS, conc. 1 μM
Could you please report measured inhibition at 1 µM for the items listed next?

Need inhibition at 1 µM, item CC(C)(N)C(=O)N1CCc2[nH]c3c(Cl)c(Cl)cc(-c4cc[nH]n4)c3c2C1
25 to 49%

Need inhibition at 1 µM, item NCC(=O)N1CCc2c(sc3c(Cl)c(Cl)cc(-c4ccco4)c23)C1
25 to 49%

Need inhibition at 1 µM, item O=C(CO)N1CCc2sc3c(Cl)c(Cl)cc(-c4cn[nH]c4)c3c2C1
0 to 24%

Need inhibition at 1 µM, item Cc1ccn(-c2cc(Cl)c(Cl)c3sc4c(c23)CCN(C(=O)CN)C4)n1
0 to 24%

* * *

# assay-target: h-cGAS (Homo sapiens, UniProt Q8N884)
# Sequence (Q8N884 whole entry): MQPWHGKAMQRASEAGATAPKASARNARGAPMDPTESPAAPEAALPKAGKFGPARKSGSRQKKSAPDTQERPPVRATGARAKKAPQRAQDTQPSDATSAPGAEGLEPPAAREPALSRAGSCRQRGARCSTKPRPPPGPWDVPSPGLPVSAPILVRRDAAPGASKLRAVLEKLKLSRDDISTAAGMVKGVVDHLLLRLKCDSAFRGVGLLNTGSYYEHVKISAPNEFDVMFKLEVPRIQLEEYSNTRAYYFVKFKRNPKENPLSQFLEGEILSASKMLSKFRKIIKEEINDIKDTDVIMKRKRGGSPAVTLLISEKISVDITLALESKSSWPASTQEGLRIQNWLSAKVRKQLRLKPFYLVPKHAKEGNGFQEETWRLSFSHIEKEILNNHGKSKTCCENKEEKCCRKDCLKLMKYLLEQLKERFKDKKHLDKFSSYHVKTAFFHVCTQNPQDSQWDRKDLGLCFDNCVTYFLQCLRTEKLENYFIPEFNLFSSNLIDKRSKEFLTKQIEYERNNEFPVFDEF
observation-type: IC50 (µM)
Just the number in µM, nothing appended.

Need IC50, item Cn1c2c(c3ccc(Cl)c(F)c31)CN(C(=O)CO)CC2 [TDI-6570, reference compound]
0.138

* * *

# assay-target: h-cGAS (Homo sapiens)
# protocol-text: Cell-free human cGAS enzyme inhibition assay (ATP depletion, Kinase-Glo Max)
# Type: biochemical
# condition: 3 h; read-out: h-cGAS, conc. 10 μM
# Procedure: Cell-free mouse and human cGAS enzyme inhibition assay (Table 2). […] The luminescence was recorded in relative light units (RLUs) using a Biotek Synergy H1 Hybrid plate reader (BioTek, Winooski, VT). […] All reactions were run in triplicates and calculated using GraphPad Prism 9. […]
observation-type: inhibition at 10 µM

Need inhibition at 10 µM, item NCC(=O)N1CCc2nc3c(Cl)c(Cl)cc(-c4cncnc4)n3c2C1
0 to 24%

Need inhibition at 10 µM, item O=C(CO)N1CCc2oc3c(Cl)c(Cl)cc(-c4nccs4)c3c2C1
75 to 100%

Need inhibition at 10 µM, item NCC(=O)N1CCc2c(sc3c(Cl)c(Cl)cc(-c4cc[nH]n4)c23)C1
50 to 74%

* * *

# assay-target: m-cGAS (Mus musculus)
# Sequence (Q8C6L5 whole entry): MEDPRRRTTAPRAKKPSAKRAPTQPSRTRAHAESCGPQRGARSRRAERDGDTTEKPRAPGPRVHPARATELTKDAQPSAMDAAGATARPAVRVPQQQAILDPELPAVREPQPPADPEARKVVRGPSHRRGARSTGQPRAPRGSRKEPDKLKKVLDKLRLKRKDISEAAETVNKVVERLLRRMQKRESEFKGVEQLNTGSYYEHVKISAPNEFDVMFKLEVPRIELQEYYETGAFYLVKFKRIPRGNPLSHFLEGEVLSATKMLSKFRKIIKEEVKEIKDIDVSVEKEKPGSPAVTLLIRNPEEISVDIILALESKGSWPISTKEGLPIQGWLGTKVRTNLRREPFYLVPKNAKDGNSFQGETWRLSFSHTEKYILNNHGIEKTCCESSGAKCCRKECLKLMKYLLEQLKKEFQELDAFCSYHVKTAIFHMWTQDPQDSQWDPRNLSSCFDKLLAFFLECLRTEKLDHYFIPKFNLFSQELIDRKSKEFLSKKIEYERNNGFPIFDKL
# protocol-text: Cell-free mouse cGAS enzyme inhibition assay (ATP depletion, Kinase-Glo Max)
# Type: biochemical
# condition: 1 h; read-out: m-cGAS, conc. 10 μM
observation-type: inhibition at 10 µM

Entry CNc1ccc(-c2cc(Cl)c(Cl)c3sc4c(c23)CCN(C(=O)CN)C4)cn1 [Compound 76] , system m-cGAS (Mus musculus): what inhibition at 10 µM was measured?
75 to 100%

Entry O=C(CO)N1CCc2nc3c(Cl)c(Cl)cc(-c4cncnc4)n3c2C1 [Compound 98] , system m-cGAS (Mus musculus): what inhibition at 10 µM was measured?
0 to 24%

Entry O=C(CO)N1CCc2sc3c(Cl)c(Cl)cc(-c4cncnc4)c3c2C1 [Compound 47] , system m-cGAS (Mus musculus): what inhibition at 10 µM was measured?
50 to 74%

Entry Cn1ccc(-c2cc(Cl)c(Cl)c3sc4c(c23)CN(C(=O)CO)CC4)n1 [Compound 46] , system m-cGAS (Mus musculus): what inhibition at 10 µM was measured?
0 to 24%

Entry Cc1csc(-c2cc(Cl)c(Cl)c3sc4c(c23)CCN(C(=O)CN)C4)n1 [Compound 91] , system m-cGAS (Mus musculus): what inhibition at 10 µM was measured?
50 to 74%

Entry Cn1c2c(c3c(-c4ccn[nH]4)cc(Cl)c(Cl)c31)CN(C(=O)C1CCCN1C(=O)OC(C)(C)C)CC2 (stereo not shown) [Compound 15] , system m-cGAS (Mus musculus): what inhibition at 10 µM was measured?
0 to 24%

Entry NCC(=O)N1CCc2c(sc3c(Cl)c(Cl)cc(-c4ccncc4)c23)C1 [Compound 79] , system m-cGAS (Mus musculus): what inhibition at 10 µM was measured?
75 to 100%

Entry Cn1cc(-c2cc(Cl)c(Cl)c3oc4c(c23)CN(C(=O)CN)CC4)cn1 [Compound 33] , system m-cGAS (Mus musculus): what inhibition at 10 µM was measured?
75 to 100%

Entry Cn1c2c(c3c(-c4ccc(N)nc4)cc(Cl)c(Cl)c31)CN(C(=O)C1CCCN1C(=O)OC(C)(C)C)CC2 (stereo not shown) [Compound 14] , system m-cGAS (Mus musculus): what inhibition at 10 µM was measured?
0 to 24%

Entry Nc1ccc(-c2cc(Cl)c(Cl)c3[nH]c4c(c23)CN(C(=O)C2(N)CC2)CC4)cn1 [Compound 19] , system m-cGAS (Mus musculus): what inhibition at 10 µM was measured?
0 to 24%

Entry Cn1cc(-c2cc(Cl)c(Cl)c3c2c2c(n3C)CCN(C(=O)CNC(=O)OC(C)(C)C)C2)cn1 [Compound 10] , system m-cGAS (Mus musculus): what inhibition at 10 µM was measured?
0 to 24%

Entry O=C(CO)N1CCc2sc3c(Cl)c(Cl)cc(-c4cn[nH]c4)c3c2C1 [Compound 51] , system m-cGAS (Mus musculus): what inhibition at 10 µM was measured?
0 to 24%

Entry Cn1ccc(-c2cc(Cl)c(Cl)c3sc4c(c23)CCN(C(=O)CN)C4)n1 [Compound 83] , system m-cGAS (Mus musculus): what inhibition at 10 µM was measured?
75 to 100%

Entry NCC(=O)N1CCc2c(sc3c(Cl)c(Cl)cc(-c4cnccn4)c23)C1 [Compound 90] , system m-cGAS (Mus musculus): what inhibition at 10 µM was measured?
50 to 74%

Entry Nc1ccc(-c2cc(Cl)c(Cl)c3sc4c(c23)CN(C(=O)[C@H]2CCCN2)CC4)cn1 [Compound 57] , system m-cGAS (Mus musculus): what inhibition at 10 µM was measured?
0 to 24%

Entry Cn1ccc(-c2cc(Cl)c(Cl)c3oc4c(c23)CN(C(=O)CO)CC4)n1 [Compound 24] , system m-cGAS (Mus musculus): what inhibition at 10 µM was measured?
50 to 74%

Entry Cn1cc(-c2cc(Cl)c(Cl)c3sc4c(c23)CCN(C(=O)CO)C4)cn1 [Compound 62] , system m-cGAS (Mus musculus): what inhibition at 10 µM was measured?
75 to 100%

Entry Cn1cc(-c2cc(Cl)c(Cl)c3nc4c(n23)CN(C(=O)CO)CC4)cn1 [Compound 99] , system m-cGAS (Mus musculus): what inhibition at 10 µM was measured?
0 to 24%

Entry Cn1ncc(-c2cc(Cl)c(Cl)c3sc4c(c23)CCN(C(=O)CN)C4)n1 [Compound 92] , system m-cGAS (Mus musculus): what inhibition at 10 µM was measured?
75 to 100%

Entry Cn1c2c(c3c(-c4cncnc4)cc(Cl)c(Cl)c31)CN(C(=O)CN)CC2 [Compound 8] , system m-cGAS (Mus musculus): what inhibition at 10 µM was measured?
0 to 24%

Entry NCC(=O)N1CCc2c(sc3c(Cl)c(Cl)cc(-c4cccnc4)c23)C1 [Compound 78] , system m-cGAS (Mus musculus): what inhibition at 10 µM was measured?
75 to 100%

Entry Cn1c2c(c3c(Br)cc(Cl)c(Cl)c31)CN(C(=O)CN)CC2 [Compound 6] , system m-cGAS (Mus musculus): what inhibition at 10 µM was measured?
75 to 100%

Entry O=C(CO)N1CCc2oc3c(Cl)c(Cl)cc(-c4cncnc4)c3c2C1 [Compound 25] , system m-cGAS (Mus musculus): what inhibition at 10 µM was measured?
50 to 74%

Entry Cn1cc(-c2cc(Cl)c(Cl)c3sc4c(c23)CN(C(=O)CO)CC4)cn1 [Compound 48] , system m-cGAS (Mus musculus): what inhibition at 10 µM was measured?
0 to 24%

Entry NCC(=O)N1CCc2c(sc3c(Cl)c(Cl)cc(-c4ncccn4)c23)C1 [Compound 89] , system m-cGAS (Mus musculus): what inhibition at 10 µM was measured?
25 to 49%

Source of measurements: patent US20250163052A1
